// data source = ChEMBL document CHEMBL1147663

# assay.target: UniProtKB P33535
# Sequence (P33535 whole entry): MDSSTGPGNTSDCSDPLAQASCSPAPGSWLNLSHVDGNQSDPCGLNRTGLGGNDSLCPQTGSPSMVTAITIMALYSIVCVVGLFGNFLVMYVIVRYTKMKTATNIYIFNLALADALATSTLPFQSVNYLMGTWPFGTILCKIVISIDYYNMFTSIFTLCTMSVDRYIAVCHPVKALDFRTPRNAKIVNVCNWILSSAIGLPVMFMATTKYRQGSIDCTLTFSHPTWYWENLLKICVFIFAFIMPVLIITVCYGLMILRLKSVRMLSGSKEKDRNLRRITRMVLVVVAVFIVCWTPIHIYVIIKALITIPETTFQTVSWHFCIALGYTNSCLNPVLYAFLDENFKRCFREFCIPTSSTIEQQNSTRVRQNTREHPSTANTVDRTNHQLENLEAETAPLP
Where a SMILES comes first, the peptide text is derived from it. [ ]: non-standard residue; d: D form. NMeNle = CCCC[C@H](NC)C(=O)O
For each record, check the reported Ki: if it is below 200 nM write 1 (yes), else write 0 (no).

Look over these answered cases.
>>> class_label("CCCC[C@@H](C(=O)N[C@@H](CC(=O)O)C(=O)N[C@@H](Cc1ccccc1)C(N)=O)N(C)C(=O)[C@H](Cc1c[nH]c2ccccc12)NC(=O)CNC(=O)CNC(=O)[C@@H](N)Cc1ccc(O)cc1 (H-YGGW[NMeNle]DF-NH2)")
"0 (no)"
>>> class_label("CCCC[C@@H](C(=O)N[C@@H](CC(=O)O)C(=O)N[C@@H](Cc1ccccc1)C(N)=O)N(C)C(=O)[C@@H](Cc1c[nH]c2ccccc12)NC(=O)CNC(=O)[C@@H](C)NC(=O)[C@@H](N)Cc1ccc(O)cc1")
"1 (yes)"
>>> class_label("CCCC[C@@H](C(=O)N[C@@H](CC(=O)O)C(=O)N[C@@H](Cc1ccccc1)C(N)=O)N(C)C(=O)[C@H](Cc1c[nH]c2ccccc12)NC(=O)CNC(=O)[C@@H](Cc1ccccc1)NC(=O)[C@H](Cc1ccc(O)cc1)NC(=O)[C@@H](N)CC(=O)O")
"0 (no)"
>>> class_label("CCCC[C@@H](NC(=O)[C@@H](N)Cc1ccc(O)cc1)C(=O)NCC(=O)N[C@@H](Cc1c[nH]c2ccccc12)C(=O)N(C)[C@@H](CCCC)C(=O)N[C@@H](CC(=O)O)C(=O)N[C@@H](Cc1ccccc1)C(N)=O")
"1 (yes)"
>>> class_label("CCCC[C@@H](C(=O)N[C@@H](CC(=O)O)C(=O)N[C@@H](Cc1ccccc1)C(N)=O)N(C)C(=O)[C@H](Cc1c[nH]c2ccccc12)NC(=O)CNC(=O)[C@H]1CCCN1C(=O)[C@@H](N)Cc1ccc(O)cc1")
"0 (no)"

Ask: API: query returns whether the molecule falls strictly under 200 nM in Ki. Query: CCCC[C@@H](C(=O)N[C@@H](CC(=O)O)C(=O)N[C@@H](Cc1ccccc1)C(N)=O)N(C)C(=O)[C@H](Cc1c[nH]c2ccccc12)NC(=O)CNC(=O)[C@@H](Cc1ccccc1)NC(=O)[C@@H](N)Cc1ccc(O)cc1
Reply: 1 (yes)
